target: hNTS2 receptor (Homo sapiens); construct: membranes prepared from them; assay: Competitive radioligand binding assay on the hNTS2 receptor; settings: displacement of 125I-[Tyr3]-NT, membranes of 1321N1 cells expressing hNTS2; read-out: IC50 NTS2 (converted)
Sequence (O95665 whole entry): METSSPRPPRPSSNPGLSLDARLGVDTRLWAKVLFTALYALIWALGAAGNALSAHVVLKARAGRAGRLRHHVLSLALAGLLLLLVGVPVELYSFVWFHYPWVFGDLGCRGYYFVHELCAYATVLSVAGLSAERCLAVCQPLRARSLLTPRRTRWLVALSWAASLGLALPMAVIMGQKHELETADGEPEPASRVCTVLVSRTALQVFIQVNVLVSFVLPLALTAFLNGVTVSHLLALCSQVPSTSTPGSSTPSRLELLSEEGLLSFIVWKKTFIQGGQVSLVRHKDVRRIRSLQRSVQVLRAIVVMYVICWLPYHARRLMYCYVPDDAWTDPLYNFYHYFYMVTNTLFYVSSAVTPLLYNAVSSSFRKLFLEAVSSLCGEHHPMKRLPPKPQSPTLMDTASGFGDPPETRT
Where a SMILES comes first, the peptide text is derived from it. Bridges are numbered along the chain shown (N, C = ends). [ ]: non-standard residue; d: D form. Bip = N[C@@H](Cc1ccc(-c2ccccc2)cc1)C(=O)O; Phe(3-I) = N[C@@H](Cc1cccc(I)c1)C(=O)O; 2Thi = N[C@@H](Cc1cccs1)C(=O)O; AllylGly = C=CC[C@H](N)C(=O)O
measure_name: IC50 (nM)

- CC(C)C[C@H](NC(=O)[C@H](Cc1ccc(-c2ccccc2)cc1)NC(=O)[C@@H]1CC=CC[C@H](N)C(=O)N[C@@H](CCCCN)C(=O)N[C@@H](CCCCN)C(=O)N1)C(=O)O [compound 139, c[G(All)KKG(All)]A (biphenyl)L] (H-[AllylGly]KK[AllylGly][Bip]L-OH; staple 1-4): 48.5
- CC(C)C[C@H](NC(=O)[C@H](Cc1ccc(O)cc1)NC(=O)[C@@H]1CC=CC[C@H](N)C(=O)N[C@@H](CCCCN)C(=O)N[C@@H](Cc2c[nH]cn2)C(=O)N1)C(=O)O [compound 55, c[G(All)KHG(All)]YL] (H-[AllylGly]KH[AllylGly]YL-OH; staple 1-4): 570
- CC(C)C[C@H](NC(=O)[C@H](Cc1ccc(O)cc1)NC(=O)[C@@H]1CC=CC[C@H](N)C(=O)N[C@@H](Cc2c[nH]cn2)C(=O)N[C@@H](CCCCN)C(=O)N1)C(=O)O [compound 83, c[G(All)HKG(All)]YL] (H-[AllylGly]HK[AllylGly]YL-OH; staple 1-4): 1320
- CC(C)C[C@H](NC(=O)[C@H](Cc1cccc(I)c1)NC(=O)[C@@H]1CC=CC[C@H](N)C(=O)N[C@@H](CCCCN)C(=O)N[C@@H](CCCCN)C(=O)N1)C(=O)O [compound 117, c[G(All)KKG(All)]F(3-iodo)L] (H-[AllylGly]KK[AllylGly][Phe(3-I)]L-OH; staple 1-4): 32.3
- CC(C)C[C@H](NC(=O)[C@H](Cc1cccs1)NC(=O)[C@@H]1CC=CC[C@H](N)C(=O)N[C@@H](CCCCN)C(=O)N[C@@H](CCCCN)C(=O)N1)C(=O)O [compound 159, c[G(All)KKG(All)]A(2-thienyl)L] (H-[AllylGly]KK[AllylGly][2Thi]L-OH; staple 1-4): 90

(A) CC(C)C[C@H](NC(=O)[C@@H](CCCCN)NC(=O)[C@@H]1CC=CC[C@H](N)C(=O)N[C@@H](CCCCN)C(=O)N[C@@H](CCCCN)C(=O)N1)C(=O)O [compound 48, c[G(All)KKG(All)]K*L] (H-[AllylGly]KK[AllylGly][dK]L-OH; staple 1-4)
(B) CC(C)C[C@H](NC(=O)[C@H](Cc1ccc(O)cc1)NC(=O)[C@@H]1CC=CC[C@H](N)C(=O)N[C@@H](CCCCN)C(=O)N[C@H](CCCCN)C(=O)N1)C(=O)O [compound 54, c[G(All)KK*G(All)]YL] (H-[AllylGly]K[dK][AllylGly]YL-OH; staple 1-4)
-- ask When the recorded IC50 values are compared, which is smaller: that of A or that of B ? Indicate your choice by writing its label.
-- reply B
(B: 321 nM, A: 10100 nM)
